Data provenance is ChEMBL document CHEMBL1125547.

# assay_target: Glutamate receptor ionotropic, AMPA (Rattus norvegicus, UniProt P19490+P19491+P19492+P19493)
# procedure_details: Displacement of [3H]AMPA from Ionotropic glutamate receptor AMPA.
# Assay type: protein-complex assay
Catalogue of pKi readings, one per entry.
Kindly note that pKi refers to -log10 of the concentration in mol/L and answer with the value alone.

Previously resolved entries follow.
O=[N+]([O-])c1ccc2c(c1)nc(O)c1nncn12    6.00
CCc1nnc2c(O)nc3cc(Cl)c(Cl)cc3n12    5.32
Cc1nnc2c(=O)[nH]c3cc(Cl)c(Cl)cc3n12    5.35
Oc1nc2cc(Cl)c(Cl)cc2n2cnnc12    5.33
Oc1nc2cc(Cl)c(Cl)cc2nc1O [2,3-DIHYDROXY-6,7-DICHLOROQUINOXALINE]    5.79
Oc1nc2cc(Cl)cc(Cl)c2n2cnnc12    5.49

Attention now shifts to the item below.
Can you look up the measured pKi of CCCCc1nnc2c(=O)[nH]c3cc(Cl)c(Cl)cc3n12 for me? 5.77
